# literature pull: Cytochrome P450 3A4 (Homo sapiens) IC50

compound	tested_target	value_type	val
CO[C@H]1[C@@H](CF)OC(N)=N[C@]1(C)c1cc(NC(=O)c2ccc(F)cn2)ccc1F	Cytochrome P450 3A4 (Homo sapiens)	IC50	≥ 20 µM
Cc1cnc(-c2cc(OC(C)C(C)O)cc(C(=O)N[C@H](C)c3cnc(C(F)(F)F)nc3)c2)s1 (single isomer, unassigned)	Cytochrome P450 3A4 (Homo sapiens)	IC50	> 20 µM
COc1cc2c(NCC(N)=O)nc(N3CCC(F)(F)CC3)nc2cc1OCCCN1CCCC1	Cytochrome P450 3A4 (Homo sapiens)	IC50	> 100 µM
CCCCOCCOc1ccc(-c2ccc3c(c2)C=C(C(=O)Nc2ccc([S+]([O-])Cc4cnc(C)cc4CC)cc2)CCCN3CC2CCOCC2)cc1 (single isomer, unassigned)	Cytochrome P450 3A4 (Homo sapiens)	IC50	> 50 µM
CCCCOCCOc1ccc(-c2ccc3c(c2)/C=C(/C(=O)Nc2ccc([S@+]([O-])Cc4c(C)ncn4CC)cc2)CCCN3CC2CCOCC2)cc1	Cytochrome P450 3A4 (Homo sapiens)	IC50	> 50 µM
O=C1COc2cc(NCc3cccc(C(=O)Nc4ccccc4O)c3)ccc2N1	Cytochrome P450 3A4 (Homo sapiens)	IC50	8.3 µM
COc1cnc(C(=O)Nc2ccc(F)c([C@]3(CF)C[C@@H](C(F)(F)F)OC(N)=N3)c2)cn1	Cytochrome P450 3A4 (Homo sapiens)	IC50	> 50 µM
COc1cnc(C(=O)Nc2ccc(F)c([C@@]3(C)N=C(N)O[C@H]([C@@H](C)F)[C@@H]3F)c2)cn1	Cytochrome P450 3A4 (Homo sapiens)	IC50	≥ 20 µM

Q: Return reported IC50; argument: `C[C@]1(c2cc(NC(=O)c3ccc(C#N)cn3)ccc2F)N=C(N)O[C@H]2[C@@H]1OCC2(F)F`
Ans: ≥ 20 µM

Q: Entry to check: `CO[C@H]1[C@@H](C)SC(N)=N[C@]1(C)c1cc(NC(=O)c2cnc(OCF)cn2)ccc1F`
Ans: ≥ 20 µM

Q: Entry to check: `O=C1COc2cc(NCc3cccc(NC(=O)c4ccccc4Cl)c3)c(Cl)cc2N1`
Ans: 0.7 µM

Q: Entry to check: `Cc1cc(C(=O)Nc2ccc(F)c([C@]3(C)C=CSC(N)=N3)c2)n(C)n1`
Ans: > 20 µM

Q: Entry to check: CNC(=O)C(c1ccccc1)N1CCc2cc(OC)c(OC)cc2C1CCc1ccc(C(F)(F)F)nc1 (centres unmarked)
Ans: 18 µM

Q: Entry to check: `CS(=O)(=O)CC(=O)Nc1c(-c2ccc(C3CC3)cn2)nn2c1C(=O)N[C@@]1(CCc3cc(F)cc(F)c31)C2`
Ans: > 20 µM

---

# literature pull: Cytochrome P450 3A4 (Homo sapiens, UniProt P08684) IC50

compound	tested_target	val
C[C@@H](c1ccccc1-c1cccc2c1OCC2)n1cncc1C(=O)N1CCC2NCCO[C@@H]2C1 (some centres unmarked)	Cytochrome P450 3A4 (Homo sapiens, UniProt P08684)	0.0066 µM
O=C1COc2cc(NCc3cccc(C(=O)Nc4cccnc4)c3)c(Cl)cc2N1	Cytochrome P450 3A4 (Homo sapiens, UniProt P08684)	1.1 µM
C[C@@H](c1ccc(-c2ccc(C#N)cn2)cc1)N1CC[C@](CCCO)(c2ccc(F)cc2)OC1=O	Cytochrome P450 3A4 (Homo sapiens, UniProt P08684)	> 50 µM
CO[C@H]1[C@@H](CF)OC(N)=N[C@]1(C)c1cc(NC(=O)c2ccc(F)cn2)ccc1Cl	Cytochrome P450 3A4 (Homo sapiens, UniProt P08684)	≥ 20 µM
CNC(=O)Nc1nc2c(s1)CN(c1cc(Cl)nc(N)n1)CC2	Cytochrome P450 3A4 (Homo sapiens, UniProt P08684)	> 20 µM
NC1=N[C@](CF)(c2cc(NC(=O)c3ccc(F)cn3)ccc2F)[C@H]2CC(F)(F)C[C@H]2O1	Cytochrome P450 3A4 (Homo sapiens, UniProt P08684)	> 10 µM
C[C@@H](c1ccccc1-c1ccc(F)cc1)n1cncc1C(=O)N1CCC[C@@H]2OCCN[C@H]2C1	Cytochrome P450 3A4 (Homo sapiens, UniProt P08684)	0.011 µM

Shift focus to the following entry.
Q: Return reported IC50; argument: `C=C1C[C@@](C)(c2cncc(NC(=O)c3cnc(OC)cn3)c2)N=C(N)S1`
Ans: > 20 µM
